target: SLN (Homo sapiens, UniProt P08254)
Sequence (P08254 100-477): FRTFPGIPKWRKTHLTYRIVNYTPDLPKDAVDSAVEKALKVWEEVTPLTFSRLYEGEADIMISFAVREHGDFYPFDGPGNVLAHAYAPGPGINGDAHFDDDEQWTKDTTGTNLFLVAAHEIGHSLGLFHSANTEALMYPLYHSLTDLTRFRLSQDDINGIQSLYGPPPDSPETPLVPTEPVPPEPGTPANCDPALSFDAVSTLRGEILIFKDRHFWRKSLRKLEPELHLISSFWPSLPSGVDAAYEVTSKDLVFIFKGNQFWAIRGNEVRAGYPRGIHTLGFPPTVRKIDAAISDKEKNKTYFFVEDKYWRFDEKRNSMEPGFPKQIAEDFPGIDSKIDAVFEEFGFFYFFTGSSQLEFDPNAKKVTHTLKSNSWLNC
pIC50: −log10 of the molar value.
quantity-kind: pIC50

compound | result
CC(C)CC(CP(=O)(O)CSc1ccc2ccccc2n1)C(=O)N[C@H]1Cc2cn(c3ccccc23)CCCCCCNC1=O (stereo partly shown) | < 6.10

* * *

molecular target: HNC (Homo sapiens, UniProt P22894)
Sequence (P22894 101-467): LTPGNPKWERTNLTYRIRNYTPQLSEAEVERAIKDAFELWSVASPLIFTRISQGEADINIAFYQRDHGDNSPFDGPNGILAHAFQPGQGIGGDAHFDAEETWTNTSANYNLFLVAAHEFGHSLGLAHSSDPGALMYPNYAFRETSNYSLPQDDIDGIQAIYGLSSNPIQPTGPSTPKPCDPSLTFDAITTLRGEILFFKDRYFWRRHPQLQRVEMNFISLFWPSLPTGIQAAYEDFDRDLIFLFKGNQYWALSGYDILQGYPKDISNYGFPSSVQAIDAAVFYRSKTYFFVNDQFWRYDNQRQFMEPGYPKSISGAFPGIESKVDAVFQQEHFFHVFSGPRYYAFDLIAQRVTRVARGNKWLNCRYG
pIC50: −log10 of the molar value.

molecule | pIC50
CC(C)CC(CP(=O)(O)CSc1ccc2ccccc2n1)C(=O)N[C@H]1Cc2cn(c3ccccc23)CCCCCCNC1=O (stereo partly shown) | 8.40

* * *

target: HFC (Homo sapiens); construct: endogenous in cells; enzyme purified from serum-free culture medium; test: In vitro collagenase inhibition assay (thiopeptide/DACM fluorescence)
Sequence (P03956 100-469): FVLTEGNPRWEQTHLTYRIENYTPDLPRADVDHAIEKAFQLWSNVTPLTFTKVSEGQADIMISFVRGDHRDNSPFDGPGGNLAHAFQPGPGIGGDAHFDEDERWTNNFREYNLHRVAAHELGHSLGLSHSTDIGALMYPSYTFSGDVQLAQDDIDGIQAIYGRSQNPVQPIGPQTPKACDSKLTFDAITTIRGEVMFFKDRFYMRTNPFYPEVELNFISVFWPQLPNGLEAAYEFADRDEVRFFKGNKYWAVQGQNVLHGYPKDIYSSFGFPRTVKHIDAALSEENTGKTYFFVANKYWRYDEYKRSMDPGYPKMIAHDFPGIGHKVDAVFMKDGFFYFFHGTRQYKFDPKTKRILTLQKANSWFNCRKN
pIC50: −log10 of the molar value.

compound | pIC50
CC(C)CC(CP(=O)(O)CSc1ccc2ccccc2n1)C(=O)N[C@H]1Cc2cn(c3ccccc23)CCCCCCNC1=O (stereo partly shown) | 8.30

* * *

molecular target: UniProt:P14780
Sequence (P14780 107-707 limits assumed): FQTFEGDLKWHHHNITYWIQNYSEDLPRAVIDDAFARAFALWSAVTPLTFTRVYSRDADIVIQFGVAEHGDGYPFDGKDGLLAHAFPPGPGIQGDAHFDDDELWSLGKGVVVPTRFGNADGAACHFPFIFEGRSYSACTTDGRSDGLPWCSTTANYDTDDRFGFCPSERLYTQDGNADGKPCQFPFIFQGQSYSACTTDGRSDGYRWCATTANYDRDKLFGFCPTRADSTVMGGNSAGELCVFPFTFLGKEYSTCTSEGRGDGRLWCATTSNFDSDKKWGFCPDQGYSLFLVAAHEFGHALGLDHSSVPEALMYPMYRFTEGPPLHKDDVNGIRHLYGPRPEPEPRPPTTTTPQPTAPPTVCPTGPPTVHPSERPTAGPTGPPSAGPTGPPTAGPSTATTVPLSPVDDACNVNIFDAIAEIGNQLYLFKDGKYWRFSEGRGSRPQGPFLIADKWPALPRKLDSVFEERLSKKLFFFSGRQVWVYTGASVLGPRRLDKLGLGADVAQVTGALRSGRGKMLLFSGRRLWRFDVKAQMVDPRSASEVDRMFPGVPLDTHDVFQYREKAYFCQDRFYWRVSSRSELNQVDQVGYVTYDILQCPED
pIC50: −log10 of the molar value.

molecule | pIC50
CC(C)CC(CP(=O)(O)CSc1ccc2ccccc2n1)C(=O)N[C@H]1Cc2cn(c3ccccc23)CCCCCCNC1=O (stereo partly shown) [Compound 4] | 7.85
